Tested on: Target C
Procedure Text: Splicing RT-qPCR panel, Target C canonical junction (CJ) mRNA
Type: cell-based, human
Settings: Homo sapiens, gene panel, CJ qPCR, protocol of Example 142; read-out: Target C IC50 (decrease in CJ mRNA levels)
pIC50: −log10 of the molar value.
pIC50 values by entry

- Compound: "Cc1nc(-c2ccc(N(C)[C@@H]3C[C@H]4CC[C@@H](C3)N4)nn2)ccc1-c1cn[nH]c1"
  pIC50: "5.00 to 6.00"
- Compound: "COc1nc(-c2ccc(N3CCC(NC4CC4)C3)nn2)ccc1-c1cn[nH]c1 (stereo not drawn)"
  pIC50: "< 5.00"
- Compound: "COc1nc(-c2ccc(N[C@@H]3C[C@H]4CC[C@@H](C3)N4)nn2)ccc1-c1cn(C)nn1"
  pIC50: "5.00 to 6.00"
- Compound: "COc1nc(-c2ncc(N(C)[C@@H]3C[C@H]4CC[C@@H](C3)N4)cn2)ccc1-c1cn[nH]c1"
  pIC50: "< 5.00"
- Compound: "COc1nc(-c2ccc(N(C)C3CC(C)(C)NC(C)(C)C3)nn2)ccc1-c1cnn(C)c1"
  pIC50: "6.00 to 7.00"
- Compound: "COc1nc(-c2ccc(OC3CC(C)(C)NC(C)(C)C3)nn2)cc(F)c1-c1cn[nH]c1"
  pIC50: "6.00 to 7.00"
- Compound: "COc1nc(-c2ccc(OC3CC(C)(C)NC(C)(C)C3)nn2)cnc1-c1cn[nH]c1"
  pIC50: "5.00 to 6.00"
- Compound: "COc1nc(-c2ccc(N(C)[C@@H]3C[C@H]4CC[C@@H](C3)N4)nn2)ccc1-c1cn[nH]c1"
  pIC50: "> 7.00"
- Compound: "COc1nc(-c2ccc(N(C)[C@@H]3C[C@H]4CC[C@@H](C3)N4)nn2)ccc1-c1cn(C)nn1"
  pIC50: "5.00 to 6.00"
- Compound: "C[C@H]1C[C@@H](N(C)c2ccc(-c3ccc(-n4cccn4)c(=O)[nH]3)nn2)CCN1"
  pIC50: "< 5.00"
- Compound: "COc1nc(-c2ccc(N(C)[C@@H]3C[C@H]4CC[C@@H](C3)N4)nn2)cc(F)c1-c1cn[nH]c1"
  pIC50: "> 7.00"
- Compound: "COc1nc(-c2ccc(NC3CCNCC3)nn2)ccc1-c1cnn(C)c1"
  pIC50: "< 5.00"
- Compound: "COc1nc(-c2ccc(NC3CCNCC3)nn2)ccc1-n1cccn1"
  pIC50: "< 5.00"
- Compound: "COc1cnc(-c2ccc(-c3ccc(N(C)[C@@H]4C[C@H]5CC[C@@H](C4)N5)nn3)nc2OC)cn1"
  pIC50: "6.00 to 7.00"
- Compound: "COc1nc(-c2ccc(N3CCC(NC(C)(C)C)C3)nn2)ccc1-n1cccn1 (stereo not drawn)"
  pIC50: "5.00 to 6.00"
- Compound: "COc1nc(-c2ccc(N(C)[C@@H]3C[C@H]4CC[C@@H](C3)N4)cn2)ccc1-c1cn[nH]c1"
  pIC50: "< 5.00"
- Compound: "CN(C)c1nc(-c2ccc(N(C)[C@@H]3C[C@H]4CC[C@@H](C3)N4)nn2)ccc1-c1cn[nH]c1"
  pIC50: "5.00 to 6.00"
- Compound: "COc1nc(-c2ccc(NC3CCNCC3)nn2)ccc1-c1cn[nH]c1"
  pIC50: "< 5.00"
